Cited source: ChEMBL document CHEMBL4480374

Can you tell me pKi for the items I'm about to list?
# ASSAYED_TARGET: Adenosine receptor A1 (Rattus norvegicus)
# Sequence (P25099 whole entry): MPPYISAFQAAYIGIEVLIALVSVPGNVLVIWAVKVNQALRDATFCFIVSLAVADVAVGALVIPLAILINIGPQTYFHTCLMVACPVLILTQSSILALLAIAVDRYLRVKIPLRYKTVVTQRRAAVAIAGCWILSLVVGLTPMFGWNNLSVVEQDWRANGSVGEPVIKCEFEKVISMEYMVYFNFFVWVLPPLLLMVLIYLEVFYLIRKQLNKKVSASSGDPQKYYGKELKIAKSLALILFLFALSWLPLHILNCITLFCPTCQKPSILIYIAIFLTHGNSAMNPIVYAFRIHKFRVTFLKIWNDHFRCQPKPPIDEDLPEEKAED
# EXPERIMENT_SUMMARY: Displacement of [3H]DPCPX from adenosine A1 receptor in rat brain membranes in presence of GTP by radioligand competition assay
# Type: cell membranes
Please note pKi is a logarithmic value: minus log10 of concentration in mol/L. Answer with that number alone.

Query: // fetch pKi given entry COc1cccc2c1C/C(=C\c1cccc(O)c1)C2=O
Response: 7.22

Query: Respond only with pKi recorded for O=C1/C(=C/c2ccc(O)c(O)c2)Cc2c(O)cccc21
Response: 6.47

---

# ASSAYED_TARGET: Adenosine receptor A1 (Rattus norvegicus)
# EXPERIMENT_SUMMARY: Displacement of [3H]DPCPX from adenosine A1 receptor in rat brain membranes by radioligand competition assay
# Type: cell membranes
ASSAY_METRIC: Ki (µM)
Write the value in µM as a bare number.

Query: Consider the compound O=C1/C(=C/c2cccc(O)c2)CCc2c(O)cccc21 and give its recorded Ki.
Response: 1.62

Query: For the compound COc1ccc2c(c1)C/C(=C\c1ccc(O)c(O)c1)C2=O , report Ki.
Response: 3.28

Query: Entry COc1cccc2c1C/C(=C\c1cccc(O)c1)C2=O needs its Ki filled in; supply it.
Response: 0.041

Query: Name the recorded Ki of the compound listed here: COc1cccc2c1C/C(=C\c1ccc(O)c(O)c1)C2=O
Response: 0.042

Query: Provide Ki value for the following compound: COc1cccc2c1C/C(=C\c1ccccc1)C2=O
Response: 1.65

Query: Return Ki for the following compound: COc1cc2c(cc1OC)C(=O)/C(=C/c1ccc(O)c(O)c1)C2
Response: 4.29

Query: Output Ki of O=C1/C(=C/c2ccc(O)c(O)c2)Cc2c(O)cccc21
Response: 0.435

---

For each record, write down the corresponding pKi.
# ASSAYED_TARGET: Adenosine receptor A2a (Rattus norvegicus, UniProt P30543)
# Sequence (P30543 whole entry): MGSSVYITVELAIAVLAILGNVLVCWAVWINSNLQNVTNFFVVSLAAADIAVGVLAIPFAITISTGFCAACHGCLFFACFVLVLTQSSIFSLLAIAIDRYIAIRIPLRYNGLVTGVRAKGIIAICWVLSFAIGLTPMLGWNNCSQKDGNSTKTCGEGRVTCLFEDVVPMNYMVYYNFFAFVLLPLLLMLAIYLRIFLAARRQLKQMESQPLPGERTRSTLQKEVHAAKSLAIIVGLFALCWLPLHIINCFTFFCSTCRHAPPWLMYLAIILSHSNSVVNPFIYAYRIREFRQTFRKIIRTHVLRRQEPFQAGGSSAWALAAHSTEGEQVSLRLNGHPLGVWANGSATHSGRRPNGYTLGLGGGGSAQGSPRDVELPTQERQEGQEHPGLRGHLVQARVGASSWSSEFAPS
# EXPERIMENT_SUMMARY: Displacement of [3H]NECA from adenosine A2A receptor in rat striatal membranes by radioligand competition assay
# Format: cell membranes, Striatum, Membrane
The value called pKi is obtained by taking minus log10 of the concentration in mol/L.

Query: For the molecule O=C1/C(=C/c2cccc(O)c2)CCc2c(O)cccc21 , give its measured pKi value.
Response: 5.26

Query: Look up pKi of O=C1/C(=C/c2ccc(O)c(O)c2)Cc2cc3c(cc21)OCO3 and report it.
Response: 5.97

Query: Please list pKi recorded for the molecule O=C1/C(=C/c2ccc(O)c(O)c2)Cc2c(O)cccc21
Response: 6.04

Query: Return value of pKi for input COc1cccc2c1C/C(=C\c1cccc(O)c1)C2=O , no commentary.
Response: 7.01

Query: Tell us which pKi value is on record for COc1cccc2c1C/C(=C\c1ccc(O)c(O)c1)C2=O
Response: 7.11

Query: # return recorded pKi for entry COc1cc2c(cc1OC)C(=O)/C(=C/c1ccc(O)c(O)c1)C2
Response: 4.74

Query: Specify reported pKi for the molecule shown: COc1ccc2c(c1)C/C(=C\c1ccc(O)c(O)c1)C2=O
Response: 5.20

Query: Query pKi for OC[C@H]1O[C@@H](n2cnc3c(NC4CCCC4)ncnc32)[C@H](O)[C@@H]1O
Response: 6.79
